// data source = the RepoRT retention time repository

Please provide measured LC retention time for the entries that follow.
assay: Agilent ZORBAX 300 SB-C18, 150 × 1 mm, 3.5 µm; A: water + 0.01% heptafluorobutyric acid; B: acetonitrile + 0.01% heptafluorobutyric acid; gradient (min/%B) 0/0 100/90; conditions: stereoisomer not certain
Answer in min, number only, no unit symbol.

Record `O=C(Nc1ccc2[nH]c(=O)[nH]c2c1)c1ccco1` . Reported LC retention time: 7.75

For this compound ( `COc1ccccc1NC(=O)C(c1ccccc1)c1ccccc1` ), measured LC retention time is 16.6

The compound listed as `CCCc1cc2c(cc1N)OCO2` shows LC retention time equal to 9.27

Looking up Cc1ccc(N2C(=O)CC(N(CCc3ccccc3)C(=S)Nc3cccc(C)c3)C2=O)cc1 (centres undefined) , I found its LC retention time recorded as 17.6

The compound listed as `Cc1ccnc(=O)[nH]1` has a reported LC retention time of 2.97

Lookup result for `c1ccc2ncccc2c1` ; measured LC retention time: 7.27

The value of LC retention time measured for the compound `CN(CCCN)CCCN` turned out to be 7.45

The recorded LC retention time for entry `CCCCCC(N)=O` equals 8.31

// sample `NCc1ccc2[nH]c(=O)[nH]c2c1` , its LC retention time was 6.29

The reported value for `COC(=O)c1ccc(Cn2c(=O)n(C)c(=O)c3ccccc32)cc1` in terms of LC retention time is 13.1

Form: compound = `Cn1cnc2ccccc21` ; LC retention time = 7.26

Input `O=C1NCCO1` . Output LC retention time: 2.05

The measured LC retention time associated with CCN1CC(CCN2CCOCC2)C(c2ccccc2)(c2ccccc2)C1=O (centres undefined) reads 9.72

The reported value for `CC(C)(N)Cc1ccccc1` in terms of LC retention time is 8.82

The reported value for `NNC(=O)CCCO` in terms of LC retention time is 2.37

Per the records, this compound ( `O=C(O)CNC(=O)C1CCCCC1` ) has LC retention time equal to 8.07

get_value(item= `O=C(O)Cc1c(C(=O)O)[nH]c2ccc(C(=O)O)cc12` , readout=LC retention time) returns 7.21

According to the records, this compound `S=C(NCc1ccccc1)Nc1cccc2ccccc12` displays LC retention time of 14.4

The recorded LC retention time for `COc1cc(C(=O)Nc2ccc(OCC(N)=O)cc2)cc(OC)c1OC` is 9.54

Noted for `CCN(CC)CC` : its LC retention time reads 7.12

For this compound ( `Cc1ccc2nc(C)[nH]c2c1` ), measured LC retention time is 8.32

Entry `O=C(O)CCCC(=O)Nc1ccccc1` , LC retention time reported as 8.72

Documented LC retention time of `CC(C)N(C)C` : 5.87

So for `CCCCc1ccc(NC(=O)c2ccc(OC(C)=O)cc2)cc1` , the logged LC retention time turned out to be 16.5

The compound listed as CC(COc1ccccc1)NC(C)C(O)c1ccc(O)cc1 (centres undefined) has a reported LC retention time of 9.89

Noted for `Cc1c(N)cccc1N` : its LC retention time reads 6.51

response.value for `CN(C)Cc1ccccc1` (field: LC retention time) = 7.53

Query `CC1(C)CC(=O)C2=C(C1)NCN(Cc1ccccc1)C2` yields LC retention time of 8.44

Quick note, LC retention time for CCNC(=S)N1CCCC(C(N)=O)C1 (centres undefined) landed at 7.41
